assay: IEC-6 cell viability reduction – luminescence, cytotoxicity control for KLF5 inhibitor project, primary screen (AID 1825); conditions: IEC-6 cytotoxicity, at 5 µM;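 also: 0% = plate median of test compound wells and 100% = cytotoxic reference compound wells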
About 2,300 (0.79%) of roughly 290,000 compounds were called active. Rule as the data show it: active = inhibition above about 22%; inactive = the rest. The sample as a whole holds a higher share of actives than the screen did.
Pick one and only one: true = active, false = inactive

Consider the following illustrative entries.
COc1cc(C(=O)OC2CCOC2=O)c([N+](=O)[O-])cc1OC (stereo unspecified) : false
O=C(Cc1cccs1)Nc1ccc([N+](=O)[O-])cc1 : false
CC(NC(=O)Cn1cc(C(F)(F)F)cc(Cl)c1=O)c1ccccc1 (stereo unspecified) : false
CCCc1c(C(=O)N/N=C(\C)CCc2ccc(OC)cc2)nnn1-c1nonc1N : false
Cc1ccc(S(=O)(=O)N(C)C2(C)CCS(=O)(=O)C2)cc1 (stereo unspecified) : false

What did the test return for `Cc1ccc(S(=O)(=O)N2CCN(C)CC2)cc1` ? false

Tell me the recorded outcome of this test for `CCc1nn(CCCC(=O)Nc2ccc(C)cc2C)c(=O)c2cc3occc3n12` . false

Please state the recorded outcome for this compound: `O=C(NCCc1nnc2ccc(SCC(=O)N3CCOCC3)nn12)c1ccccc1` false

Hi, do you know how `COc1ccc(N2CCN(C(=O)[C@@H](NC(=O)c3cc(OC)cc(OC)c3)C(C)C)CC2)cc1` came out in this test? false

What call does the record list for `Cc1ccc(S(=O)(=O)C2(S(=O)(=O)c3ccc(C)cc3)CCCC2)cc1` ? true

What classification did CCc1ccc(OCC2c3cc(OC)c(OC)cc3CCN2C(C)=O)cc1 (stereo unspecified) end up with in this test? false

====

I'd appreciate it if you could supply inhibition values for the items below.
test: IEC-6 cell viability reduction – luminescence, cytotoxicity control for KLF5 inhibitor project, primary screen (AID 1825); conditions: IEC-6 cytotoxicity, at 5 µM, hits give high values
Screen size: about 290,000 compounds; about 2,300 (0.79%) were called active. This is one part of a sample in which actives are shown more often than they occur.
Numbers only, in %.

CC1(C)CC(N2CCN(C(c3ccccc3)c3ccccc3)CC2)=CC(=[N+]2CCCCC2)C1 : 30.6
O=C(O)CN1CCN(C(c2ccccc2)c2ccccc2)CC1 : -7.1
COc1ccc2[nH]cc(/C=C(/C#N)S(=O)(=O)c3ccccc3)c2c1 : -0.2

Now let's try a different one.
For the molecule `COc1cc(/C=C(\C#N)c2nc3ccccc3[nH]2)ccc1O` , give its measured inhibition value. 2

====

assay: IEC-6 cell viability reduction – luminescence, cytotoxicity control for KLF5 inhibitor project, primary screen (AID 1825); conditions: IEC-6 cytotoxicity, at 5 µM
In all, about 290,000 compounds went through this assay and about 2,300 (0.79%) were called active. Rule as the data show it: active = inhibition above about 22%; inactive = the rest. The sample as a whole holds a higher share of actives than the screen did.
The reply should be one of these categories: yes = active, no = inactive

CCOC(=O)C(=Cc1ccccc1OC)C(=O)OCC : no
COc1ccc(C(=O)NC2CCCc3c2cnn3-c2cccc(C)c2C)c(OC)n1 (stereo unspecified) : no
CCN1CCN(CCNC(=O)c2ccc(/C=C3/Sc4ccccc4N(Cc4cccc(C)c4)C3=O)cc2)CC1 : no
Cn1nccc1C(=O)NC1CCCc2c1cnn2-c1ccc(F)cc1F (stereo unspecified) : yes
O=C(c1n[nH]c2c1CCC2)N1CCCC(Nc2cccc(F)c2)C1 (stereo unspecified) : no

Let's switch to this compound now.
Recorded test call requested for CC1CCCN(S(=O)(=O)c2ccc(-c3ccc(=O)[nH]n3)o2)C1 (stereo unspecified) no

====

assay: IEC-6 cell viability reduction – luminescence, cytotoxicity control for KLF5 inhibitor project, primary screen (AID 1825); conditions: IEC-6 cytotoxicity, at 5 µM, hits give high values
The whole screen tested about 290,000 compounds, of which about 2,300 (0.79%) were called active. This excerpt belongs to a sample that is enriched for actives.
Observation type: inhibition (%)
Answers are plain numbers, in %.

Some compounds with recorded inhibition:
COc1ccc(Cl)cc1NC(=O)CN(C)Cc1ccc(OC)c(OC)c1 : 5.1
Cc1cc(C)n(-c2nc(C(F)(F)F)nc3ccccc23)n1 : 5.6
CC(C)c1nc2ccc(C(=O)O)cc2[nH]1 : -6

Your task in this section: give inhibition for each listed record.
1. COC(=O)c1ccc(S(=O)(=O)N2CCc3ccccc3C2)cc1
2. Cc1ccccc1NCC(=O)N/N=C\c1ccc([N+](=O)[O-])s1
3. CC(C)C(=O)Nc1c2c(nn1-c1ccccc1)CSC2
4. CCN(CC(=O)NCCCN1CCOCC1)S(=O)(=O)c1cc(Cl)ccc1Cl

1. 1.8
2. -4.9
3. -4.2
4. 0.6

// each compound listed below needs its inhibition
1. COc1cc(OC)cc(C(=O)N[C@H](C(=O)Nc2nc3ccccc3[nH]2)C(C)C)c1
2. c1ccc(-n2nnnc2-c2cccnc2)cc1

1: 18.7; 2: 4.3

Go through the list and state inhibition for each entry.
1. CCSc1nnc(-c2cc3c(s2)-c2ccccc2CC3)o1
2. N#C/C=C/N1CCN(Cc2ccc3c(c2)OCO3)CC1
3. Cc1cc(C)n2nc(C(=O)NC(C)(C)C)nc2n1

1. 5.3
2. -5.9
3. 3.3

====

assay: IEC-6 cell viability reduction – luminescence, cytotoxicity control for KLF5 inhibitor project, primary screen (AID 1825); settings: IEC-6 cytotoxicity, at 5 µM, hits give high values
Hit rate of the full screen: of about 290,000 compounds, about 2,300 (0.79%) were called active. This is one part of a sample in which actives are shown more often than they occur.
Observation type: inhibition (%)
One number for each entry, in %.

The examples below pair each entry with its known result.
COc1ccc(NC(=O)c2cccc(Cl)c2)c[n+]1[O-] : 2.7
COC(=O)C1=C(C)NC(=O)CC1c1ccccc1OC (stereo not given) : -0.1
COc1ccc(CCNS(=O)(=O)c2cn(C)nc2C)cc1 : 3

Report inhibition for each item below.
1. Cc1ccc(-n2c(SCC(=O)Nc3ncc(Cl)cc3Cl)nc3ccccc32)cc1
2. CSc1ncccc1C(=O)Nc1ccc(C)cn1
3. COc1cc2c(cc1OC)C(c1ccncc1)CC(=O)N2 (stereo not given)
4. Cc1ccc(SCCC(=O)OCC(=O)Nc2ncc(Cl)cc2Cl)cc1

61.4
4.3
1
-3.3

Hello, I would appreciate it if you could give inhibition for each entry below.
1. COc1ccc(C2CC(=O)Nc3cc(C)c(C)cc32)c(OC)c1OC (stereo not given)
2. CCOc1cc(C(=O)N2CCc3cc(OC)c(OC)cc3C2)ccc1OC(F)F
3. CCCCNC(=O)CCn1nc(-c2ccc(Cl)cc2)ccc1=O

1. 1.9
2. 90
3. -2.4

====

test: IEC-6 cell viability reduction – luminescence, cytotoxicity control for KLF5 inhibitor project, primary screen (AID 1825); details: IEC-6 cytotoxicity, at 5 µM;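 also: 0% = plate median of test compound wells and 100% = cytotoxic reference compound wells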
In all, about 290,000 compounds went through this assay and about 2,300 (0.79%) were called active. Cut-off read from the data, not from the text of the source: active = inhibition above about 22%; inactive = the rest. This excerpt belongs to a sample that is enriched for actives.
Reply using exactly one outcome from active, inactive

CN(C)CCNC(=O)c1[nH]nc2c1CCc1ccccc1-2 : inactive
Cc1nc2ccccc2n1CC(O)c1ccccc1 (centres undefined) : inactive

Continue with the compound presented below.
I would be grateful if you could indicate the recorded call for `COc1ccc(Nc2cc(C)nc(-n3nc(C)cc3C)n2)cc1` . active

====

test: IEC-6 cell viability reduction – luminescence, cytotoxicity control for KLF5 inhibitor project, primary screen (AID 1825); details: IEC-6 cytotoxicity, at 5 µM;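 also: 0% = plate median of test compound wells and 100% = cytotoxic reference compound wells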
The campaign covered roughly 290,000 compounds. About 2,300 (0.79%) were called active. Cut-off read from the data, not from the text of the source: active = inhibition above about 22%; inactive = the rest. The entries come from a sample that favours actives as a whole.
Permitted responses: active, inactive

Record excerpt, results attached:
O=C(Cc1ccc([N+](=O)[O-])cc1)Nc1ccc(C(=O)N2CCOCC2)cc1 : inactive
COc1ccc(-n2nnnc2-c2nc3ccccc3s2)cc1 : inactive

Which outcome was assigned to COc1ccc2c(c1OC)C(=O)OC2Nc1nc(-c2ccccc2)cs1 (stereo not drawn) in this test? active

Any idea what this test logged for `CCOC(=O)/C=C/C(=O)OCC(=O)NC(c1ccccc1)c1ccccc1` ? active

Check the results log: what was the call for `CN1C(=O)[C@H]2[C@@H](C3CC3)N3C(=O)CN(Cc4ccccc4)C(=O)[C@@]3(C)[C@H]2C1=O` ? inactive

For `COC(=O)c1sccc1NS(=O)(=O)c1ccc(F)cc1F` , what call appears in the results of this test? inactive

Called result for `COc1cccc(NC(=O)CN(C)C(=O)c2ccccc2CCc2ccccc2)c1` inactive

====

Kindly supply the reported inhibition values for the records listed here.
assay: IEC-6 cell viability reduction – luminescence, cytotoxicity control for KLF5 inhibitor project, primary screen (AID 1825); settings: IEC-6 cytotoxicity, at 5 µM, hits give high values;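 also: 0% = plate median of test compound wells and 100% = cytotoxic reference compound wells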
Screen size: about 290,000 compounds; about 2,300 (0.79%) were called active. Many of the other results were omitted from the sample, so actives are more common in it than they were.
Numbers only, in %.

Worked examples follow.
Cc1nn(CCCC(=O)NCc2ccccc2Cl)c(=O)c2nccn12 : -5.6
CCc1c(C)nc2c(-c3ccccc3)c(C)nn2c1Nc1ccc(NC(C)=O)cc1 : -10.5
CCOC(=O)N1CCN(C(=O)c2cn(C)c3ccc(S(=O)(=O)N(CC)CC)cc3c2=O)CC1 : -5.4
O=C(CN1C(=O)C2C3C=CC(C3)C2C1=O)Nc1nc(-c2ccccn2)cs1 (stereo unspecified) : 32.2

Count: 4. Required value per item: inhibition.
1. COc1ccc(-c2cc(C(F)(F)F)nc(SCC(=O)Nc3ccc4c(c3)OCO4)n2)cc1OC
2. O=C(CN1C(=O)C2C3C=CC(C3)C2C1=O)NCC1COc2ccccc2O1 (stereo unspecified)
3. Cc1ccc(N/C=C/C(=O)c2ccccc2)cc1C
4. Cc1cc(Oc2ccc(Cl)cc2)nc(SCC(=O)c2ccccc2)n1

1. 3
2. -0.7
3. 0.5
4. 1.9

Dear colleague, could you please provide inhibition for the molecules listed below?
1. Cc1nc2sccn2c(=O)c1S(=O)(=O)NCCc1ccccc1
2. COc1ccccc1/C=N\Nc1cc(C)nc(-n2nc(C)cc2C)n1
3. Cc1nc2ccccc2c(=O)n1Cc1ccc([N+](=O)[O-])cc1
4. O=C(CCN1C(=O)C2C3C=CC(C3)C2C1=O)Nc1ccccc1F (stereo unspecified)
5. Cc1cc(C)nc(S/C=C/C(=O)c2ccccc2)n1
6. Cc1cc(C)nc(SCC(=O)c2ccc(Cl)cc2)n1
7. CCOC(=O)c1cnc(-n2nc(C)cc2C)nc1Nc1cccc(C(C)=O)c1
8. Cc1nc(Nc2ccc3c(c2)OCCO3)c2nnn(Cc3ccccc3Cl)c2n1

-0.1
-10.1
-1.7
-2.4
31.5
-2.2
1.3
22.2
